- assay-text: Stability, 7 days at T = 60° C.
- Format: physicochemical
- condition-label: 7 days at T = 60° C.

{"compound": "CS(=O)(=O)O.Cc1ccc(C(=O)Nc2ccc(CN3CCN(C)CC3)c(C(F)(F)F)c2)cc1C#Cc1nnc2ccccn12 [methanesulfonic acid salt]", "Crystallinity in 7 days": "Cryst."}
{"compound": "Cc1ccc(C(=O)Nc2ccc(CN3CCN(C)CC3)c(C(F)(F)F)c2)cc1C#Cc1nnc2ccccn12.O=C(O)/C=C/C(=O)O", "Crystallinity in 7 days": "Cryst."}
{"compound": "Cc1ccc(C(=O)Nc2ccc(CN3CCN(C)CC3)c(C(F)(F)F)c2)cc1C#Cc1nnc2ccccn12.Cc1ccc(S(=O)(=O)O)cc1", "Crystallinity in 7 days": "Cryst."}
